# assay remarks: kd value surface plasmon resonance (SPR) method
# Type: ADME
measure: Kd (nM)

a. NC(=O)C[C@@H]1NC(=O)C2(CCCCC2)NC(=O)[C@@H](CC(=O)O)[C@@H](c2ccc(CP(=O)(O)O)cc2)/C=C/C[C@@H](Cc2cccc3ccccc23)CNC1=O
b. NC(=O)C[C@@H]1NC(=O)C2(CCCCC2)NC(=O)[C@@H](CC(=O)O)[C@@H](c2ccc(C(C(=O)[O-])C(=O)[O-])cc2)/C=C/C[C@@H](Cc2cccc3ccccc23)CNC1=O.[Na+].[Na+]
c. NC(=O)C[C@H](NC(=O)C1(NC(=O)[C@H](Cc2ccc(CP(=O)(O)O)cc2)NC(=O)C(=O)O)CCCCC1)C(=O)NCCCc1cccc2ccccc12
Query string: Thanks in advance: please rank these 3 entries by Kd, highest to lowest. Answer by writing out the labels in the requested order.
Result string: c, b, a
